Test system: SNB-75
test.method.notes: NCI tumour cell line growth inhibition, 48 h
Calls of active or inactive are those of the source. Rule as the data show it: active = GI50 up to about 1.1 µM and inactive = higher.
outcome.measure: GI50

Prompt line: State the recorded GI50 for this entry: "C[C@H](CCC(=O)NCCS(=O)(=O)O)[C@H]1CC[C@H]2[C@@H]3CC[C@@H]4C[C@H](O)CC[C@]4(C)[C@H]3CC[C@]12C"
Response line: > 100 µM (inactive)

Prompt line: Please look up its GI50: "Cc1cc(NS(=O)(=O)c2ccc(NC(=O)c3cccc4c(N)c5ccccc5nc34)cc2)no1"
Response line: 68.7 µM (inactive)

Prompt line: For the molecule "CCC1(CC)C(=O)N(C(=O)c2cc(OC)c(OC)c(OC)c2)N(C(=O)c2cc(OC)c(OC)c(OC)c2)C1=O" , what GI50 is on record?
Response line: 42.9 µM (inactive)

Prompt line: Record request: GI50 value, item "Cc1nnc2ccccc2c1O"
Response line: > 100 µM (inactive)

----------
System: M19-MEL
test.method.notes: NCI tumour cell line growth inhibition, 48 h
Calls of active or inactive are those of the source. Cut-off read from the data, not from the text of the source: active = GI50 up to about 1.1 µM and inactive = higher.
Give your call using only these classes: active, inactive

Prompt line: Recorded test outcome, item C[C@@H](c1ccccc1)N(CC#N)C1CCC[C@H]1O (stereo partly drawn)
Response line: inactive

Prompt line: State the result this test recorded for "Cc1cc(NS(=O)(=O)c2ccc(NC(=O)c3cccc4c(N)c5ccccc5nc34)cc2)no1" .
Response line: inactive

Prompt line: Identify the outcome logged in this assay for the compound shown: "CC1=C(C#N)C(N)=C2C(C)=C(C#N)C(N)=C12"
Response line: inactive

Prompt line: For this compound, state the assay outcome: COc1ccc([C@H]2CC(=O)N3CCCC3N2)cc1 (stereo partly drawn)
Response line: inactive

Prompt line: Given COc1cccc2c1C(=O)c1c(O)c3c(c(O)c1C2=O)C[C@@](O)(/C(C)=N\O)C[C@@H]3OC1CC(N)C(O)C(C)O1 (stereo partly drawn) , state the outcome it received in this test.
Response line: active

Prompt line: What classification did "CNC(=O)OCc1nc(SSC(C)(C)C)n(C)c1COC(=O)NC" end up with in this test?
Response line: inactive

Prompt line: What outcome does the record of this test show for "O=C(NCCCCCCCCCCCCNC(=O)c1cccc2ccccc12)c1cccc2ccccc12" ?
Response line: inactive

Prompt line: I would be grateful if you could indicate the recorded call for "C/C([O-])=C(/c1nc(-c2ccc([N+](=O)[O-])o2)no1)[n+]1cc(C)ccc1C" .
Response line: inactive

----------
System: MOLT-4
test.method.notes: NCI tumour cell line growth inhibition, 48 h
Active and inactive are the calls of the source. Rule as the data show it: active = GI50 up to about 1.1 µM and inactive = higher.
Lab note: assign the record to one of T (active), F (inactive)

Prompt line: Kindly provide the recorded test outcome for the following compound: "Cc1ccc2n(c1)cc(-c1ccc(/C=N/NC(=N)N/N=C/c3ccc(-c4cn5cc(C)ccc5[n+]4C)cc3)cc1)[n+]2C"
Response line: F

Prompt line: Outcome? Nc1ncc(N)c(NCC2(CO)CC(CCc3ccccc3)C2)n1 (stereo unspecified)
Response line: T

Prompt line: What did this assay record as the result for "COC(=O)c1ccc(NCC2=C(Br)C(=O)C=CC2=O)cc1Cl" ?
Response line: F

Prompt line: What classification did "CSc1c2c(C)n[nH]c2nn1-c1ccccc1" end up with in this test?
Response line: F

Prompt line: Please indicate how the test categorized c1ccc(C2SCc3nc4cc5ccccc5cc4n32)cc1 (stereo unspecified) .
Response line: F

Prompt line: Could you kindly confirm the outcome this assay logged for "N#Cc1nc(Nc2ccc([N+](=O)[O-])cc2)sc1N" ?
Response line: F

----------
Tested on: A549
test.method.notes: NCI tumour cell line growth inhibition, 48 h
Calls of active or inactive are those of the source. Rule as the data show it: active = GI50 up to about 1.1 µM and inactive = higher.
outcome.measure: GI50

Prompt line: Please tell me: GI50 of "NC(=O)C12CC3CC(CC(Br)(C3)C1)C2" , system A549?
Response line: > 100 µM (inactive)

Prompt line: Given the entry "CC(C)[C@H]1CO[C@]2(C)[C@@H]3CN(Cc4ccccc4)C[C@@H]3C(=O)N12" , what GI50 was observed with A549?
Response line: > 100 µM (inactive)

Prompt line: What is its GI50 for A549? Entry: "Cc1cc2nc(N3C(=O)/C(=C/c4ccc(N(C)C)cc4)N=C3c3ccccc3)sc2cc1C"
Response line: 33.2 µM (inactive)

Prompt line: Which GI50 is reported with A549 for this entry: "COC(=O)C(=C/c1ccc(OC)cc1)/C(C(=O)O)=C(/C)c1ccccc1" ?
Response line: > 100 µM (inactive)

Prompt line: Missing value: GI50, A549, entry CCCCCN1C(=O)C(Cc2ccccc2)N=C(c2ccc(O)cc2)c2cc(Cl)ccc21 (stereo unspecified) . Fill in?
Response line: 13.6 µM (inactive)

Prompt line: Report GI50 for COc1ccc(C2SCC(=O)N2c2ccc(-n3c(-c4ccccc4)nc4ccccc4c3=O)cc2)cc1 (stereo unspecified) tested on A549.
Response line: > 100 µM (inactive)

Prompt line: Test system A549; read-out GI50; what value for "COc1cc2cccc(/N=C/c3c(Br)ccc(OC)c3OC(C)C)c2cc1OC" ?
Response line: 82.4 µM (inactive)

Prompt line: Checklist item: GI50 tested on A549, entry "CC1(C)c2ccccc2C(=O)C12CCC(=O)CC2" , value?
Response line: > 100 µM (inactive)

Prompt line: # query: GI50 | item "Cc1ccc(/C=N/NC2=NCCN2)s1" | system: A549
Response line: > 100 µM (inactive)

Prompt line: Record "CCCCCCCc1ccc(-c2nnc(/N=N/c3ccc(OCCCCC)cc3)s2)s1" : what is its GI50 with A549?
Response line: > 100 µM (inactive)

Prompt line: Param readout = GI50; param system = A549; param query = "Cc1noc2cccc(O)c12" ; response: value
Response line: > 100 µM (inactive)

Prompt line: GET /values?readout=GI50&system=A549&item= "COc1ccc(C=O)c(N(C)C(=O)C(C)(C)C)c1"
Response line: > 100 µM (inactive)

Prompt line: Param readout= GI50; system= A549; entry= "COC(=O)C1=CS/C(=C2\S[C@@H]3[C@H](S2)[C@H]2C=C[C@@H]3C2)S1" ; returns value.
Response line: 30.8 µM (inactive)

Prompt line: State its GI50 on A549: "CC1=C(C(=O)NNC(=O)c2ccccc2)CC(C(=O)NNC(=O)c2ccccc2)=C(C)N1"
Response line: > 100 µM (inactive)

Prompt line: Give recorded GI50 with A549 for the following molecule: O=C1c2c(Br)sc(Br)c2[C@@H](NC(=O)C(F)(F)F)C1Br (stereo partly specified)
Response line: 17.1 µM (inactive)

Prompt line: Write down the reported GI50 of "O=C(O)CCNS(=O)(=O)c1ccc([N+](=O)[O-])cc1" , test system: A549.
Response line: > 100 µM (inactive)

Prompt line: Param readout = GI50; param system = A549; param query = "C[C@]12CC[C@H]3[C@@H](CC=C4C[C@@H](O)CC[C@@]43C)[C@@H]1CC[C@@H]2N(CCO)CCO" ; response: value
Response line: 42 µM (inactive)

Prompt line: Identify the measured GI50 of c1cnn(C23C4C5C6C4C2C6C53)c1 (stereo unspecified) for A549.
Response line: > 100 µM (inactive)

Prompt line: Form field - read-out: GI50; system: A549; submitted item: CN(C)c1c(C2CC(O)C(CO)O2)c(=O)c1=O (stereo unspecified)
Response line: > 100 µM (inactive)

Prompt line: I'm curious: which GI50 was measured for "CC1=C(C(=O)NCc2ccccc2)C(/C=C/c2ccccc2)C(C(=O)NCc2ccccc2)=C(C)N1" tested on A549?
Response line: > 100 µM (inactive)

Prompt line: Item COc1cc(C2c3cc4c(cc3[C@@H](Nc3ccc(N5CCOCC5)cc3)C3COC(=O)[C@H]23)OCO4)cc(OC)c1O (stereo partly specified) with A549 - GI50?
Response line: 0.0659 µM (active)

----------
For each record, write down the corresponding GI50.
Tested on: MOLT-4
test.method.notes: NCI tumour cell line growth inhibition, 48 h
Calls of active or inactive are those of the source. Rule as the data show it: active = GI50 up to about 1.1 µM and inactive = higher.

Prompt line: Name the recorded GI50 for "COc1ccc(/C=C\c2cc(OC)c(OC(C)=O)c(OC)c2)cc1" .
Response line: 6.43 µM (inactive)

Prompt line: What value of GI50 has been recorded for this entry: "COc1ccc(Nc2nn3c(=O)c4c(C)c(C)sc4nc3s2)cc1"
Response line: 43.2 µM (inactive)

Prompt line: Item "Cc1c(-c2ccc(O)cc2)n(CCCCCCNCCOC(=O)NCCCc2ccc(N(CCCl)CCCl)cc2)c2ccc(O)cc12" has what recorded GI50?
Response line: 1.17 µM (inactive)

Prompt line: Please look up its GI50: "C/C(CC(=O)Nc1cccc(C)c1C)=N\NC(N)=S"
Response line: > 100 µM (inactive)

Prompt line: Entry "O=C(O)c1ccc(-c2nc3cc(Cl)ccc3[nH]2)cc1" : reported GI50 = ?
Response line: > 100 µM (inactive)

Prompt line: Given CCO/C=C\C12CCCC1NC(c1ccccc1)(c1ccccc1)O2 (stereo unspecified) , state its recorded GI50.
Response line: 19.2 µM (inactive)

Prompt line: Can you look up the measured GI50 of "COC(=O)Nc1nc2cc(NS(=O)(=O)c3ccc(F)cc3)ccc2[nH]1" for me?
Response line: 6.75 µM (inactive)

Prompt line: Bench note: what GI50 did "O=C1C(c2cnc3ccccc3n2)=C(O)c2ccccc21" show?
Response line: > 70.5 µM (inactive)

Prompt line: Fill blank: measured GI50 of the compound CC(C)CC1c2[nH]c3ccccc3c2C[C@H]2C(=O)NC(CCCCNC(=O)OC(C)(C)C)C(=O)N12 (stereo partly specified) is ____.
Response line: 11.8 µM (inactive)

Prompt line: Item under review: "Cc1cnc2cc(Cl)ccc2c1SCC(=O)O" . Reported GI50?
Response line: > 100 µM (inactive)

Prompt line: Recorded GI50 of CN(C)N1C(=O)c2ccccc2NC1c1ccccc1 (stereo unspecified) , please.
Response line: > 100 µM (inactive)
